- measured-on: Dihydroorotate dehydrogenase (quinone), mitochondrial (Plasmodium falciparum (isolate 3D7)) (UniProt Q08210)
- Sequence (Q08210 whole entry, looked up): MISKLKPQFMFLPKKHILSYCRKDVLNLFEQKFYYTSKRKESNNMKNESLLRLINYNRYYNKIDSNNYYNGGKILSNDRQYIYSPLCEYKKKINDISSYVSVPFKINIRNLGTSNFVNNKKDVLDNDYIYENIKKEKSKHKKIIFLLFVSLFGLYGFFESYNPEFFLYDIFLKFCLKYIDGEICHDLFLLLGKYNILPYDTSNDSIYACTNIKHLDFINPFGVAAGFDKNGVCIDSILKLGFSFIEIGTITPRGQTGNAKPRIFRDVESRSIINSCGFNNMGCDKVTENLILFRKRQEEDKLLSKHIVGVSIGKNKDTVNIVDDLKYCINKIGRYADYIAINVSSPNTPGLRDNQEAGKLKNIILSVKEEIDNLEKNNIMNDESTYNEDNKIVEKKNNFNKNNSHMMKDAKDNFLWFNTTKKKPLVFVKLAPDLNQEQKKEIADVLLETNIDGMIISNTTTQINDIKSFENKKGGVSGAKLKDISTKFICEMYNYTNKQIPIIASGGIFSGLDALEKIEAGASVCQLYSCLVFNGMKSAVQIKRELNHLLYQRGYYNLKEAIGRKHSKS
- assay-details: inhibition of P. falciparum DHODH – biochemical, C-terminal His tag, absorbance 600 nm, primary screen (AID 1175);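 note: recombinant parasite enzyme with a five histidine tag at its C terminus; test concentration not given here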
- conditions-used: PfDHODH enzyme, DCIP absorbance 600 nm; higher = more signal, called active from +8 up or from −8 down
Entries and their composite z-score values follow.
Number only, please.

molecule	value-measured
COC(=O)C(CC#Cc1ccc2c(c1)[C@]1(C(=O)N2)[C@H](C(=O)N2CCc3cc(OC)c(OC)cc3C2)[C@H]2C(=O)O[C@H](c3ccccc3)[C@H](c3ccccc3)N2[C@@H]1c1ccccc1OCCO)C(=O)OC	-7.03
CN(C)CCCNC(=O)[C@@]1(Cc2ccccc2I)c2ccccc2C(=O)N(C2CCCCC2)[C@H]1c1ccc(CO)cc1	0.201
[N-]=[N+]=Nc1ccccc1C[C@@]1(C(=O)NCC(O)CO)N=C(c2ccc(OCCCO)cc2)O[C@@H]1c1ccccc1 (some centres undefined)	0.303
C#CCN1[C@@H](Cc2ccccc2)C(=O)O[C@H](Cc2ccccc2)[C@@H]1/C=C/C1CC1	0.0255
C=CC[C@@]1(C(=O)N(C)C)N=C(c2ccc(OCCCO)cc2)O[C@@H]1c1ccccc1CN=[N+]=[N-]	0.59
CC1CC/C=C\[C@H]2OC34C=CCN(c5ccc(Cl)cc5)C(=O)[C@H]3N(CCCCCCO)C(=O)[C@]4(C)C2C(=O)O1 (some centres undefined)	-1.1

In one line, give reported composite z-score of the entry CC(C)C(O)C1C=CC2C(=O)NC(=O)C2N1Nc1ccccn1 (centres undefined) . 0.48

In one line, give reported composite z-score of the entry COCCOC(=O)N1C(=O)[C@@]2(c3cc(C#CCNC(N)=O)ccc31)[C@H](C(=O)Nc1nc3ccccc3s1)[C@H]1C(=O)O[C@H](c3ccccc3)[C@H](c3ccccc3)N1[C@@H]2c1ccccc1OCCO . -0.845

In one line, give reported composite z-score of the entry CC(C)NC(=O)[C@@]1(C)c2ccccc2C(=O)N(Cc2ccccc2)[C@H]1c1ccc(CO)cc1 . -1.48

In one line, give reported composite z-score of the entry C=CCNC(=O)[C@H]1[C@@H]2C(=O)O[C@@H](c3ccccc3)[C@@H](c3ccccc3)N2[C@@H](c2ccc(OCCO)cc2)[C@]12C(=O)Nc1ccccc12 . -0.26

In one line, give reported composite z-score of the entry COCCOC(=O)N1C(=O)[C@@]2(c3cc(C#CC4(O)CCCCCC4)ccc31)[C@H](c1ccc(O)cc1)N1[C@H](c3ccccc3)[C@H](c3ccccc3)OC(=O)[C@H]1[C@@H]2C(=O)N1CCCCCCC1 . -1.45

In one line, give reported composite z-score of the entry COC(=O)[C@@]1(Cc2ccccc2)[C@H]2c3cc(C(=O)N(C)C)n(Cc4ccc(S(C)(=O)=O)cc4)c3C[C@H]2CN1C(=O)c1ccccc1 . -0.316

In one line, give reported composite z-score of the entry OCCCC1=CC(c2ccc(CN3CCCC3)cc2)N(Cc2cccc(OC(F)(F)F)c2)CC1 (centres undefined) . -1.2

In one line, give reported composite z-score of the entry CCCCC(=C=CC[C@H](O)c1ccc(CO)o1)CCO . -0.776

In one line, give reported composite z-score of the entry [N-]=[N+]=Nc1ccccc1C[C@]1(C(=O)N2CCOCC2)N=C(c2ccc(OCCCO)cc2)O[C@H]1c1ccccc1N=[N+]=[N-] . -0.481

In one line, give reported composite z-score of the entry COC(=O)C(CC#Cc1ccc2c(c1)[C@]1(C(=O)N2)[C@H](c2ccccc2OCCO)N2[C@H](c3ccccc3)[C@H](c3ccccc3)OC(=O)[C@H]2[C@@H]1C(=O)N1CCc2cc(OC)c(OC)cc2C1)C(=O)OC . -0.653

In one line, give reported composite z-score of the entry [N-]=[N+]=NCc1ccccc1[C@@H]1OC(c2ccc(OCCCO)cc2)=N[C@]1(Cc1ccccc1N=[N+]=[N-])C(=O)NCC(O)CO (some centres undefined) . -0.728

In one line, give reported composite z-score of the entry C=C(CCCC)/C(=C/C[C@H](OC(C)=O)c1cccc(OCCO)c1)c1cnc2ccccc2c1 . -3.15

In one line, give reported composite z-score of the entry CC(C)=CCCC(C)=CC(O)C1C=CC2C(=O)NC(=O)C2N1Nc1ccccn1 (centres undefined) . 0.242

In one line, give reported composite z-score of the entry CC(C)c1nc2cc(Br)ccc2c(=O)o1 . 0.374

---

Entries and their composite z-score values follow.
- assay-details: probe aNOTCH3 binding on compound microarray – biochemical, small-molecule microarray, 635/667 nm fluorescence, primary screen (AID 1120);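 note: probe is a biotin-tagged antibody raised against NOTCH3 rather than NOTCH3 protein; score merges spot fluorescence near 667 nm with spot signal to noise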
- conditions-used: higher = more signal
Number only, please.

Known composite z-score results, listed for orientation:
compound	composite z-score
COCCOC(=O)N1C(=O)[C@@]2(c3cc(C#Cc4ccc(OC)cc4)ccc31)[C@H](c1ccc(OCCO)cc1)N1[C@H](c3ccccc3)[C@H](c3ccccc3)OC(=O)[C@H]1[C@@H]2C(=O)NC[C@H](O)c1ccccc1	0.154
O=C1C2C=CC(C(O)c3ccc([N+](=O)[O-])cc3)N(Nc3ccccc3F)C2C(=O)N1c1ccccc1 (configuration not stated)	-0.124
CC(C)C[C@@H]1NC(=O)[C@@H]2C[C@H](C(=O)NCCCCCCNC(=O)CS)[C@H](c3cccc(OCCO)c3)N2C1=O	0.248
O=C1NC(=O)C2C1C=CC(C(O)c1ccc(B(O)O)cc1)N2Nc1ccc(Cl)cc1Cl (configuration not stated)	0.0864
CCCC#C[Si](O[C@H](CC)c1cn(Cc2ccccc2)nn1)(C(C)C)C(C)C	0.151
COCCOC(=O)N1C(=O)[C@@]2(c3cc(C#CCCO)ccc31)[C@H](C(N)=O)[C@H]1C(=O)O[C@H](c3ccccc3)[C@H](c3ccccc3)N1[C@@H]2c1ccccc1OCCO	0.0727

With those in mind, consider the next compound.
In one line, give reported composite z-score of the entry C=CCOC(=O)[C@H]1[C@@H]2C(=O)O[C@@H](c3ccccc3)[C@@H](c3ccccc3)N2[C@@H](c2ccc(OCCOC(=O)[C@H]3C[C@H]4C(=O)N[C@@H](CC(C)C)C(=O)N4[C@H]3c3ccc(O)cc3)cc2)[C@]12C(=O)Nc1ccccc12 . 0.0695

---

Entries and their z-score values follow.
- measured-on: Homeobox protein Hox-A13 (Mus musculus)
- assay-details: disruptors of Hoxa13 oligonucleotide interaction – biochemical, fluorescence polarization, labeled oligonucleotide, primary screen (AID 1185)
- conditions-used: Hoxa13:DNA binding, 15 min, higher = more signal, called active from +8 up or from −8 down
Number only, please.

Known z-score results, listed for orientation:
compound	measured-on	z-score
CC(C)(C)N1CC=CC23O[C@@H]4/C=C\CCCOC(=O)C4[C@H]2C(=O)N(CCCO)[C@@H]3C1=O (some centres undefined)	Homeobox protein Hox-A13 (Mus musculus)	-5.57
C=CCOC(=O)[C@H]1[C@@H]2C(=O)O[C@@H](c3ccccc3)[C@@H](c3ccccc3)N2[C@@H](c2ccc(OCCOC(=O)[C@H]3C[C@H]4C(=O)N[C@@H](CC(C)C)C(=O)N4[C@H]3c3ccc(O)cc3)cc2)[C@]12C(=O)Nc1ccccc12	Homeobox protein Hox-A13 (Mus musculus)	0.832
CCCC[C@H]1OB(O)C[C@H]2C1=C(COc1ccccc1)C[C@H]1C(=O)C=CC(=O)[C@H]12	Homeobox protein Hox-A13 (Mus musculus)	-5.45

In one line, give reported z-score of the entry O=C(NCc1ccccc1)[C@@H]1c2ccccc2C(=O)N(Cc2ccc(OC(F)(F)F)cc2)[C@H]1c1ccc(CO)cc1 . -2.53

In one line, give reported z-score of the entry O=C(NC1CC1)[C@@H]1c2ccccc2C(=O)N(CC23CC4CC(CC(C4)C2)C3)[C@H]1c1ccc(CO)cc1 . -5.05

---

- assay-details: plasmodial surface anion channel blockers, osmotic lysis – cell-based, P. falciparum Indochina, OD700, 2 h, primary screen (AID 1155);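 note: lysis reports solute entry through the parasite surface anion channel PSAC; channel blockers reduce lysis of infected cells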
- conditions-used: P. falciparum Indochina infected erythrocytes, higher = more signal, called active from +8 up or from −8 down
Entries and their z-score values follow.
Number only, please.

Known z-score results, listed for orientation:
molecule	assay-readout	value-measured
C=CCN1C(=O)[C@]2(O[C@H](CCn3cc([C@H](O)c4ccccc4)nn3)[C@@H]([Si](C)(C)c3ccc(OC)cc3)[C@@H]2C)c2cc(NC(=O)c3ccc(OC)cc3)ccc21	z-score	2.21
C[N+](C)(C)CCCC[C@@H]1NC(=O)[C@@H]2C[C@H](C(=O)NCc3ccc(F)cc3)[C@H](c3ccc(O)cc3)N2C1=O	z-score	0.376
CCCCC(O)C1C=CC2C(=O)N(c3ccccc3)C(=O)C2N1Nc1ccccc1 (configuration not stated)	z-score	0.786
CCCC[C@H]1C[C@@H]1[C@@H]1N(C(C)=O)[C@H](c2cccc(OC)c2)CC12CC2	z-score	0.984

In one line, give reported z-score of the entry N#Cc1ccc(NN2C(C(O)C3CC=CCC3)C=CC3C(=O)N(c4ccccc4)C(=O)C32)cc1 (configuration not stated) . 3.34

In one line, give reported z-score of the entry COc1ccccc1CN1C(=O)c2ccccc2[C@](Cc2ccccc2I)(C(=O)NCC(C)C)[C@@H]1c1ccc(CO)cc1 . 1.44

In one line, give reported z-score of the entry O=C1O[C@@H](c2ccccc2)[C@@H](c2ccccc2)N2[C@@H](c3ccc(OCCO)cc3)[C@]3(C(=O)Nc4ccc(C#CC5(O)CCCCCC5)cc43)[C@@H](C(=O)O)[C@H]12 . -0.927
